B1: TPR 5TU (parent)
chain: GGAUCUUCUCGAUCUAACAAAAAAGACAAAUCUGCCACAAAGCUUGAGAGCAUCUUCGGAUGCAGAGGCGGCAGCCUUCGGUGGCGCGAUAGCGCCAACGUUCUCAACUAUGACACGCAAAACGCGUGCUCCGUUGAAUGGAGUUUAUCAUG

- Variants of: B1
- assay-explanation: polymerase ribozyme fitness, log enrichment relative to wild type (log ratio); higher = more active; in vitro selection for triplet polymerase activity
Fewer inactive variants are shown than the library holds.
reported-metric: polymerase ribozyme fitness (log ratio)
Give bare numbers.

Please review the entries below; each comes with its answer.
| mut | polymerase ribozyme fitness (log ratio) |
| --- | --- |
| U6C U31C A52U G58A C95G U145A | -2.9 |
| U53G A97G | -1.44 |
| U55A A121C | -0.369 |
| C85U C95A U127G | -3.88 |
| A21U C96G G143U | -3.69 |
| U55A C85G C114A A142C U151A | -4.19 |

Below are some variants; for each one, tell me its polymerase ribozyme fitness (log ratio).
1. G25C G86A G94U
2. C85A G136A
3. U15A A47C C54G A115G U127C U146A
4. U53A C95G C96G U146A
5. G83C C96A A150C
6. U6A G58C G94A

Output:
1: -3.91; 2: -1.05; 3: -1.14; 4: -3.91; 5: -3.75; 6: -0.942

Below are some variants; for each one, tell me its polymerase ribozyme fitness (log ratio).
1. C36U C96U A142C
2. C5U C85G
3. A17G C38U C57A C63A A115G U144A
4. A40C C87U G117C
5. A26C C85A G94C

Output:
1: -2.88; 2: -1.7; 3: -1.28; 4: -0.313; 5: -1.83

Below are some variants; for each one, tell me its polymerase ribozyme fitness (log ratio).
1. C75G C87A
2. C96A A97G G143A
3. G81C A119U G128U
4. C69U C85G C149U

Output:
1. -3.89
2. -0.965
3. -2.99
4. -2.74
